Reported log10 Vd by item:
Test: Volume of distribution at steady state in Wistar Han rat at 1 mg/kg, iv administered as 1 hr infusion or 3 mg/kg, po administered via gavage by LC-MS/MS analysis
Format: ADME, organism-based
Conditions: in vivo, read-out: Vdss
quantityMeasured: log10 Vd (log10 of the value in L/kg)

# compound, log10 Vd
data = [
    ("CNC(=O)c1cc(C(=O)NC2CC2)cc(Cc2cccc3c2CCN3)n1.Cl", 0.61),
    ("CNC(=O)c1cc(C(=O)N[C@H]2[C@@H]3COC[C@@H]32)cc([C@@H](C)c2ccccc2)n1", 0.23),
    ("CNC(=O)c1cc(C(=O)NC2CC2)cc(Cc2ccccc2)n1", -0.40),
    ("CNC(=O)c1cc(C(=O)N[C@H]2[C@@H]3COC[C@@H]32)cc(C(OC)c2ccccc2)n1 (stereo not given in full)", 0.32),
    ("CNC(=O)c1cc(C(=O)N[C@H]2[C@@H]3COC[C@@H]32)cc(Cc2cccc3[nH]ccc23)n1", 0.26),
]
